molecular target: T1, Recombinant MBP-mutCALR Type 1 fusion protein (human); assay: SPR, IgG captured, 1:1 fit, Exp. 2
T1 construct: custom made at Cepter; also called recombinant mutCALR protein
Observation Type: pKd
Quick note: pKd values are minus log10 of concentrations in mol/L.

Give the measured pKd of anti-mutCALR antibody clone 189 (antibody, human IgG1, lambda, N297A, V domains shown) VH: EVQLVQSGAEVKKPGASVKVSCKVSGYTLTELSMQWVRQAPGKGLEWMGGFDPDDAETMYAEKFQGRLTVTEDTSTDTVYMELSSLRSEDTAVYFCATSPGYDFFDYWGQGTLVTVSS VL: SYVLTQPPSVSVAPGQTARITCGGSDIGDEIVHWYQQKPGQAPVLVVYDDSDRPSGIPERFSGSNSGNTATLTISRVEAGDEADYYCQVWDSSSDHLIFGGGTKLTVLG .
9.37

pKd for anti-mutCALR antibody clone 61 (antibody, human IgG1, lambda, N297A, V domains shown, human IgG1 N297A variant of clone 6) VH: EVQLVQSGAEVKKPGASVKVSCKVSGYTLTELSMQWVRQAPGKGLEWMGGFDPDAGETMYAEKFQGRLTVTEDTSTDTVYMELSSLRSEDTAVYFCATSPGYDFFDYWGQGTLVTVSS VL: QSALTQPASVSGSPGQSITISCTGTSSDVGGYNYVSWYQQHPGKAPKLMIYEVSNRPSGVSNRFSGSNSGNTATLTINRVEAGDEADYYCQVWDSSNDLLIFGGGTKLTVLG ?
9.05

For the binder anti-mutCALR antibody clone 185 (antibody, human IgG1, lambda, N297A, V domains shown, human IgG1 N297A variant of clone 17) VH: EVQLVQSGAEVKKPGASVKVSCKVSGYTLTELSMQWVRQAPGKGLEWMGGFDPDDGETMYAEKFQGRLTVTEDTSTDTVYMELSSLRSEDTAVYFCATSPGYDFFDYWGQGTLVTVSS VL: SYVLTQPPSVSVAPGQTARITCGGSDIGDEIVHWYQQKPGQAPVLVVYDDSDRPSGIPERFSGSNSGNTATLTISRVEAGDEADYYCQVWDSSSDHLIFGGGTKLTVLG , what pKd is on record?
9.77
